Reference source for all entries: PubChem BioAssay (NCI)

- Tested on: SK-OV-3 ovarian
- experimental-details: NCI tumour cell line growth inhibition, 48 h
outcome-measure: TGI

q: Reported TGI for COC1=CC2(C=CC1=O)CCN=c1c(O)c3c(c(O)c12)=NC=N3 (stereo unspecified) : what is it?
a: > 100 µM

q: And the next one, CCOc1ccc(NC(=S)/N=C/C(C(=O)Nc2ccccc2C)=C(\C)O)cc1 ?
a: > 100 µM

q: Ok, now COc1ccc(N=C2NN=C(c3c[nH]c4ccccc34)CS2)cc1OC
a: > 100 µM

q: Try this molecule too: CC1=CC(c2ccccc2)n2c(nc3cc4ccccc4cc32)N1 (stereo unspecified)
a: > 100 µM

q: For Fc1nc(F)nc(-c2c3ccccc3c3n2CCS3)n1 then?
a: > 100 µM

q: Thanks! And C=CC1(CCC(Br)C(C)(C)Cl)CO1 (stereo unspecified) ?
a: > 10 µM

----------
- System: MDA-N
- experimental-details: NCI tumour cell line growth inhibition, 48 h
outcome-measure: TGI (µM)
Dear colleague, please return just the value in µM, with no unit written.

q: Give the measured TGI of N#Cc1nnc2c3c(-c4ccc(Cl)cc4)c(C#N)c(=O)[nH]c3nn2c1N .
a: 13.4

q: Another compound to look at: O=C(CCCN1CCc2[nH]c3cc(F)ccc3c2C1)c1ccc(F)cc1
a: 29.2

q: Can you check COc1cc(C2S/C(=C/c3ccccc3)C(=O)N2c2ccc(Cl)cc2)cc(OC)c1OC (stereo not given) next?
a: 34.3

q: Would you kindly repeat that for CC(C)[Si]1(C(C)C)OCC2OC(n3cnc4c(N)ncnc43)C(N)C2O[Si](C(C)C)(C(C)C)O1 (stereo not given) ?
a: 24.3

----------
- Tested on: UO-31 renal
- experimental-details: NCI tumour cell line growth inhibition, 48 h; in the data active means GI50 below about 0.43 µM; inactive means the rest
Choose one outcome from this list and give only that: active, inactive

q: Identify the outcome logged in this assay for the compound shown: CC(C)(C)c1ccc(S(=O)(=O)N[C@H]2CC[C@H]3[C@@H]4CCc5cc(O)ccc5[C@H]4CC[C@]23C)cc1
a: inactive

q: Now consider C#Cc1cccc(Nc2ncnc3ccc(-c4cncc(NS(C)(=O)=O)c4)cc23)c1 and answer again.
a: inactive

q: Do the same for CC[C@@]1(OC(=O)CN(C)C)C(=O)OCc2c1cc1n(c2=O)Cc2cc3ccccc3nc2-1 please
a: active

q: Record: CC[C@@]1(O)C(=O)OCc2c1cc1n(c2=O)Cc2cc3c(NC(C)=O)c(O)ccc3nc2-1
a: inactive

q: Also, CC1(C)CC2(C)OC2C2(C1)N=NC(=Nc1ccccc1)O2 (stereo not drawn) please.
a: inactive

q: Would you kindly repeat that for C[C@]12CC[C@@H]3c4ccc(O)cc4CC[C@H]3[C@@H]1CC[C@@H]2NS(=O)(=O)c1ccc(-c2ccccc2)cc1 ?
a: inactive

q: Also need O=[N+]([O-])c1cccc(-c2ncc(-c3ccc(Cl)cc3Cl)[nH]2)c1 , thanks.
a: inactive

q: How about this compound: O=c1c2cc(F)ccc2sc2c(NCCCN3CCCC3)nc3ccccc3c12
a: inactive

----------
- Tested on: K-562 leukemia
- experimental-details: NCI tumour cell line growth inhibition, 48 h
Hi there, I'd appreciate the recorded TGI for every entry that follows.

q: // map O=C1/C(=C/c2ccccc2)CN(C(=O)OCC(Cl)(Cl)Cl)C/C1=C\c1ccccc1 to recorded TGI (system: K-562 leukemia)
a: 5.91 µM

q: Also need O=[N+]([O-])c1cccc(-c2ncc(-c3ccc(Cl)cc3Cl)[nH]2)c1 , thanks.
a: > 19.7 µM

q: Also check O=C(CCN1CCCCC1CO)Nc1ccc2c(c1)C(=O)c1ccc(NC(=O)CCN3CCCCC3CO)cc1C2=O (stereo unspecified)
a: 46.1 µM

q: Moving on to CCOc1ccc(NC(=S)/N=C/C(C(=O)Nc2ccccc2C)=C(\C)O)cc1
a: > 100 µM

q: How about this compound: C=C(CC1(CC(=C)c2ccc(C(=O)O)cc2)C(=O)N(C)C(=O)N(C)C1=O)c1ccc(C(=O)O)cc1
a: > 100 µM

q: Try COC(=O)CNC(=O)/C=C/[C@H](O[Si](C)(C)C(C)(C)C)[C@H](/C=C/C(=O)NCC(=O)OC)O[Si](C)(C)C(C)(C)C next.
a: > 25 µM

q: Next up: CC(=O)C1=C(O)/C(=C\c2ccco2)OC1=O
a: > 10 µM

q: Same thing, different compound: CC(=O)Oc1ccc2c(c1)c1c(OC(C)=O)c3ccccc3c(OC(C)=O)c1n2Cc1cccc(C)c1
a: > 100 µM

q: Now consider O=C(O)CCCc1nc2c(n1-c1ccccc1)C(=O)c1ccccc1C2=O .
a: > 100 µM

q: What do you get for CCC1NCC(=O)c2c1[nH]c1ccccc21 (stereo unspecified) ?
a: > 100 µM

q: Next up: C=C(C)[C@]12CC(C)C34OC(/C=C\C=C\CCCCCCCCC)(O[C@@H]1[C@@H]3[C@@H]1O[C@]1(CO)[C@@H](O)[C@]1(O)C(=O)C(C)=C[C@@H]41)O2 (stereo partly specified)
a: > 35 µM

q: Also Nc1ccc2c(c1)CN1C(=O)c3ccccc3C1=N2 ?
a: > 125 µM

q: Would you mind doing COC1(OC)N=C(N)C2(C#N)/C(=N/N(C)C)CC(C)C12C#N (stereo unspecified) as well?
a: > 100 µM

q: Try COc1cc(CC(=O)c2ccc3c(c2)OCO3)cc(OC)c1OC next.
a: > 100 µM

q: For OCCCCC#Cc1ccccc1C#Cc1cnccn1 then?
a: > 100 µM

q: Please do the same for CSC1(SC)CCCCCCCCCCC1 as well.
a: > 100 µM

q: Same thing, different compound: Clc1ccccc1C1=NN(c2ccccc2)C2c3cc(Br)ccc3OCC12 (stereo unspecified)
a: > 100 µM

q: Another: C=C1C(=O)C[C@@]23CCC[C@@]12CC(O)C3 (stereo partly specified)
a: > 87 µM

q: // next record O=C(OCc1nc2ccc(Br)cc2c(=O)n1-c1ccccc1)c1ccccc1O
a: > 100 µM

q: Query O=C1c2ccccc2C(=O)c2c1ccc1c3ccccc3n(Cc3ccccc3)c21 next
a: > 100 µM

q: Try this compound too: O=C(NCCCCl)c1c(O)c2ccccc2[nH]c1=O
a: > 100 µM
